- tgt: Calcium-dependent protein kinase 4 (Plasmodium falciparum (isolate 3D7))
- experiment summary: PfCDPK4 kinase inhibitors, biochemical, TCAMS library (AID 1159588)
- condition label: recombinant PfCDPK4, Kinase-Glo ATP depletion luminescence
Entries with a potency or affinity are not part of this list. Activity calls are given as the source filed them. No cut-off is given here; in the data, nearly all actives have IC50 up to about 0.91 µM.
quantity measured: outcome

> print(dat)
                                   compound    result
1  Cc1[nH]c2c(C)cccc2c1C1CCN(CCC2CCN(C(=O)/C=C/c3ccc(Cl)c(Cl)c3)CC2)CC1  inactive
2  NC(=O)c1ccccc1OCC(=O)Nc1ccc(-c2cccc(-c3nc4ccc(C(F)(F)F)cc4[nH]3)c2)cc1  inactive
3  CC1(C)CN2CCCC2c2cc(NC(=O)/C=C/c3ccccc3Cl)ccc21 (centres undefined)  inactive
4  O=C(Nc1ccccc1F)N(CCCn1ccnc1)Cc1csc(-c2ccc(CNCc3ccccc3)cc2)n1  inactive
5  CCCCCCN1CCCN(Cc2ccc(C(=O)Nc3ccc(CCC)cc3)cc2)CC1  inactive
6  CN(CCCCCN1CCC(NC(=O)Nc2ccc(C(F)(F)F)cc2)C1)C(=O)/C=C/c1ccc(Cl)c(Cl)c1 (centres undefined)  inactive
7  Fc1ccccc1-c1cc(Nc2ccncc2)nc(-c2cccnc2)n1  inactive
8  Cc1ccc(NC(=O)Nc2ccc(Cl)cc2)cc1-c1ccc(C(=O)Nc2ccncc2)cc1  inactive

Okay, next one:
Q: Fill in: outcome of CCCCN(CCCC)C(=O)CC(O)c1cc2c(Cl)cc(Cl)cc2c2cc(C(F)(F)F)ccc12 (centres undefined) is ___
A: inactive

----------
- experiment summary: antimalarial activity against Dd2 strain (AID 2302);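 note: 0% = DMSO untreated growth and 100% = chloroquine plus artemisinin killed control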
- condition label: P. falciparum Dd2 in RBCs, LDH growth readout, 72 h; at 2 µM
Activity calls are given as the source filed them.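 Rule for the calls: active = growth inhibition above 50% at the single 2 µM test dose, taken to imply half-maximal potency below 2 µM; inactive = the rest.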
Could you please pick one outcome from this set? TRUE (active), FALSE (inactive)

Q: // return assay outcome for Cc1ccc(C)c(CC(=O)N2CCC(n3c(C)nc4ccc(F)cc43)CC2)c1
A: TRUE

Q: CCCC(=O)Nc1ccc(OCCCN(Cc2ccccc2C(F)(F)F)c2ccc(C#N)c(C(F)(F)F)c2)cc1 ?
A: TRUE

----------
- tgt: L-lactate dehydrogenase (Plasmodium falciparum (isolate CDC / Honduras))
- experiment summary: PfLDH activity inhibition – cell lysate, 3D7 strain, counter-screen for P. falciparum growth inhibition project (AID 2304);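 note: 0% = vehicle and 100% = reference inhibitor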
- condition label: P. falciparum 3D7 crude extract, LDH APAD/NBT absorbance; at 2 µM; active compounds read high
Recorded inhibition, one value per entry.
Give the value, in units of %, as a plain number.

> print(dat)
                                   compound  quantitative.readout
1  COc1cc2nccc(Nc3ccc4c(cnn4Cc4cccc(F)c4)c3)c2cc1OC                    -6
2  CC(Oc1ccc(Cl)cc1)C(=O)NCCC1CCN(CCCCCNC(=O)/C=C/c2ccc(Cl)c(Cl)c2)CC1 (stereo not given)                    -5
3  Ic1cc(CNC2CCCCC2)ccc1OCc1cccc(COc2ccc(CNC3CCCCC3)cc2I)c1                    -4

Q: Lab request: please report inhibition under test system L-lactate dehydrogenase (Plasmodium falciparum (isolate CDC / Honduras)) for CCCN1CCN(CCCNC(=O)c2cc3c(Cl)nc4ccc(C)cc4c3s2)CC1
A: 0

Q: CC(C)=CCc1c(-c2ccc(O)cc2O)oc2c3c(cc(O)c2c1=O)OC(C)(C)C=C3 ?
A: 5

----------
Recorded inhibition, one value per entry.
- experiment summary: HepG2 cytotoxicity, primary screen, cytotoxicity control for P. falciparum antimalarial project, cell-based, ATP luminescence (AID 2303);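 note: 0% = DMSO wells and 100% = digitonin-killed cells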
- condition label: HepG2 viability, 24-48 h, at 10 µM, active compounds read high
Give the value, in units of %, as a plain number.

For orientation, consider the following solved cases.
> print(dat)
                                   compound  quantity.measured  quantitative.readout
1  O=C(NC1CCN(Cc2ccccc2)CC1)c1ccc(-c2nc3cc(Cl)c(F)cc3[nH]2)cc1         inhibition                    13
2  CNC(=O)Cc1ccc(C(=O)Nc2cccc(-c3csc(-c4nc5ccccc5[nH]4)c3)c2)cc1         inhibition                    36
3  CN(C)c1ccc2c(c1)Sc1cc(N(C)C)ccc1N2C(=O)CCCC(=O)O         inhibition                    -4
4  O=C(NCc1ccc(F)cc1)Nc1ccc(-c2cccc(-c3nc4ccc(C(F)(F)F)cc4[nH]3)c2)cc1         inhibition                    41
5  Cc1ccc(NC(=O)Nc2ccc(S(=O)(=O)c3ccc(NC(=O)Nc4ccc(C)c(Cl)c4)cc3)cc2)cc1Cl         inhibition                    49
6  Cc1cc2ccccc2n1CC(=O)N1CC(C(=O)N2CCCCC2)Oc2ccccc21 (centres undefined)         inhibition                    -1
7  CC12CCC(=O)N1C(C(=O)Nc1cccc(C(=O)Nc3cccc(C(F)(F)F)c3)c1)CS2 (centres undefined)         inhibition                     6
8  O=C(Nc1ccc(OC2CCN(Cc3ccccc3)C2)c(Cl)c1)c1ccco1 (centres undefined)         inhibition                    13

Okay, next one:
Q: Fill in: inhibition of Cc1cccc2[nH]c(-c3ccc(-c4ccc(CNCc5ccccc5)cc4)cc3)nc12 is ___
A: 5

----------
- experiment summary: HepG2 cytotoxicity, primary screen, cytotoxicity control for P. falciparum antimalarial project, cell-based, ATP luminescence (AID 2303);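 note: 0% = DMSO wells and 100% = digitonin-killed cells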
- condition label: HepG2 viability, 24-48 h, at 10 µM, active compounds read high
Recorded inhibition, one value per entry.
Give the value, in units of %, as a plain number.

For orientation, consider the following solved cases.
> print(dat)
                                   compound  quantitative.readout
1  COc1ccc(O)c(C(=O)c2cnc3c(c2)c(-c2ccc(F)cc2)c(C#N)c(=O)n3C)c1                     7
2  CCNc1cc(C(=O)N[C@@H](Cc2ccccc2)[C@H](O)CNC(C)Cc2cccc(Cl)c2)cc(N2CCCCS2(=O)=O)c1 (stereo not given in full)                    -6
3  CN1CCN(c2ccc(CNc3ccc4ncc(-c5ccc(OC(F)(F)F)cc5)n4n3)cc2)CC1                    13
4  Cc1[nH]c(C)c(-c2ccc(Oc3ccc(Cl)cc3)cc2)c(=O)c1Br                    12
5  CCCCNC[C@@H](O)[C@H](Cc1ccccc1)NC(=O)c1cc(NCC)cc(N2CCCCS2(=O)=O)c1                    11

Q: Fill in: inhibition of N#Cc1ccc(NC(=O)N2CCCN(CCCCCNC(=O)/C=C/c3ccc(Cl)c(Cl)c3)CC2)cc1 is ___
A: 32

Q: Cc1cccc(C)c1N1CCN(C2CCC(NC(=O)/C=C/c3ccccc3)CC2)CC1 (stereo not given) ?
A: 38

Q: COC(=O)c1ccc(-c2ccc(-c3cccnc3)cc2C)cc1 ?
A: 81

Q: O=C(/C=C/c1ccc(Cl)c(Cl)c1)NCCCN1CCC(c2c[nH]c3ccccc23)CC1 ?
A: 48

Q: CCc1cc(NC2CCN(C)CC2)nc(Nc2cccc(OC)c2)n1 ?
A: 22

Q: CN1CCCC(CN2CCN(Cc3ccc(-c4cccc(-c5nc6ccc(F)cc6[nH]5)c4)cc3)CC2)C1 (stereo not given) ?
A: 92

Q: NC(=NCCCCCCCCN=C(N)Nc1ccc(Cl)cc1)Nc1ccc(Cl)cc1 ?
A: 10

Q: O=[N+]([O-])c1cccc(C=NNc2ccnc3cc(F)ccc23)c1 ?
A: 4

Q: COc1cccc2c(C)cc(NCc3ccc(Cl)cc3)nc12 ?
A: 7

Q: Cc1cccc2[nH]c(-c3ccc(-c4cccc(CNCc5cnn(-c6ccccc6)n5)c4)s3)nc12 ?
A: 40

Q: NC1CCN(Cc2cccc(-c3ccc(-c4nc5ccccc5[nH]4)s3)c2)C1 (stereo not given) ?
A: 36

Q: CON=Cc1sc(CNCCCNc2cc(=O)c3ccccc3[nH]2)c(C)c1Br ?
A: -8

Q: N#Cc1ccc(-c2ccc(C(=O)NCCCCN3CCC(c4cc(Br)c5c(c4O)CCCC5)CC3)cc2)cc1 ?
A: 93

Q: CCOC(=O)c1cc(Cl)ccc1OCCCON1C(N)=NC(N)=NC1(C)C ?
A: 69

Q: CCN(CC)CCNc1ccc(Nc2ccnc3cc4ccccc4cc23)cc1 ?
A: 36

----------
- tgt: Plasmodium falciparum protein kinase 6 (PK6, PF3D7_1337100)
- experiment summary: PfPK6 kinase inhibitors, biochemical, TCAMS library (AID 1159586)
- condition label: recombinant PfPK6, Kinase-Glo ATP depletion luminescence
Potency and affinity values are given separately. Active and inactive are the calls of the source. The rule behind the calls is not given here.
quantity measured: outcome

For orientation, consider the following solved cases.
> print(dat)
                                   molecule                                       tgt  quantity.measured    result
1  O=C(Nc1cccc(-c2cccc(-c3nc4ccc(F)cc4[nH]3)c2)c1)c1csnn1  Plasmodium falciparum protein kinase 6 (PK6, PF3D7_1337100)            outcome  inactive
2     CCCCCCCN(CCCCCCC)CCNc1cc(C)nc2ccccc12  Plasmodium falciparum protein kinase 6 (PK6, PF3D7_1337100)            outcome  inactive
3  O=C(NCC1CCN(Cc2cccc(C(F)(F)F)c2)C1)c1cc(-c2cccc(C(F)(F)F)c2)cs1 (stereo not given)  Plasmodium falciparum protein kinase 6 (PK6, PF3D7_1337100)            outcome  inactive
4  COc1ccc2nccc([C@@H](O)CN3CCC(NCc4cc5cc(OC(F)(F)F)ccc5[nH]4)CC3)c2c1  Plasmodium falciparum protein kinase 6 (PK6, PF3D7_1337100)            outcome  inactive

Okay, next one:
Q: Fill in: outcome of c1cc(-c2ccc(CNCCc3ccncc3)cc2)cc(-c2nc3ccccc3[nH]2)c1 is ___
A: inactive
